Entry source: the Immune Epitope Database (IEDB)

Molecular target: HLA-B*46:01
Experiment: IEDB peptide-MHC binding, purified MHC/direct/fluorescence; filed as Kd, often an IC50 or EC50 that approximates it; bounds were set here for any values at or beyond the usual limits of such assays
Conditions: source organism: Camelpox virus CMS
measure name: Kd

{"ordered residues": "VSEKYTDMY", "val": "≥ 20 µM"}

====

Readings of pKd for the listed sequences
Biological target: HLA-A*23:01
Assay: IEDB peptide-MHC binding, purified MHC/competitive/radioactivity; filed as Kd, often an IC50 or EC50 that approximates it; bounds were set here for any values at or beyond the usual limits of such assays
Settings: source organism: Dengue virus 4 Philippines/H241/1956
pKd: −log10 of the molar value.

{"ordered residues": "GWKNWQEVPF", "system tested": "HLA-A*23:01", "pKd": 6.37}
{"ordered residues": "MWHVTRGSVI", "system tested": "HLA-A*23:01", "pKd": 5.97}

====

Target: HLA-C*12:03
Assay: IEDB peptide-MHC binding, purified MHC/direct/fluorescence; filed as Kd, often an IC50 or EC50 that approximates it; bounds were set here for any values at or beyond the usual limits of such assays
Conditions: source organism: Yellow fever virus

{"ordered residues": "VAIDRPAEV", "system tested": "HLA-C*12:03", "Kd": "≤ 1 nM"}

====

Target: HLA-B*35:01
Test: IEDB peptide-MHC binding, purified MHC/competitive/radioactivity; filed as Kd, often an IC50 or EC50 that approximates it; bounds were set here for any values at or beyond the usual limits of such assays
Details: source organism: Dengue virus 3 Martinique/1243/1999

{"ordered residues": "FPYSIPATL", "system tested": "HLA-B*35:01", "unit of measure": "nM", "Kd": 1.99}

====

Target: HLA-A*02:03
Assay: IEDB peptide-MHC binding, purified MHC/competitive/radioactivity; filed as Kd, often an IC50 or EC50 that approximates it; bounds were set here for any values at or beyond the usual limits of such assays
Conditions: source organism: SARS coronavirus Tor2
pKd: −log10 of the molar value.
Please use fulfilled whenever pKd is not below 8, and not fulfilled whenever it is.

{"ordered residues": "FLAFVVFLLV", "class name": "not fulfilled"}
{"ordered residues": "LAFVVFLLV", "class name": "not fulfilled"}
{"ordered residues": "GLSDRVVFV", "class name": "fulfilled"}

====

Target: HLA-A*29:02
Experiment: IEDB peptide-MHC binding, purified MHC/competitive/fluorescence; filed as Kd, often an IC50 or EC50 that approximates it; bounds were set here for any values at or beyond the usual limits of such assays
Conditions: source organism: Entamoeba histolytica
pKd: −log10 of the molar value.

{"ordered residues": "RASHFRKLF", "pKd": "≤ 4.70"}

====

Molecular target: HLA-A*02:19
Assay: IEDB peptide-MHC binding, purified MHC/competitive/fluorescence; filed as Kd, often an IC50 or EC50 that approximates it; bounds were set here for any values at or beyond the usual limits of such assays
Conditions: source organism: Bacillus anthracis str. A0488
pKd: −log10 of the molar value.
measure name: pKd

{"ordered residues": "KQGDVFYTA", "measure name": "pKd", "val": "≤ 4.70"}

====

Biological target: HLA-C*14:02
Assay: IEDB peptide-MHC binding, purified MHC/direct/fluorescence; filed as Kd, often an IC50 or EC50 that approximates it; bounds were set here for any values at or beyond the usual limits of such assays
Conditions: source organism: Zaire ebolavirus

{"ordered residues": "FRYEFTAPF", "Kd, nM": 209}

====

Target: HLA-A*01:01
Test: IEDB peptide-MHC binding, purified MHC/competitive/fluorescence; bounds were set here for any values at or beyond the usual limits of such assays
Details: source organism: Zaire ebolavirus

{"ordered residues": "NTSKSTDFL", "IC50": "≥ 191 µM"}

====

Target: HLA-A*02:06
Test: IEDB peptide-MHC binding, purified MHC/competitive/radioactivity; filed as Kd, often an IC50 or EC50 that approximates it; bounds were set here for any values at or beyond the usual limits of such assays
Conditions: source organism: Dengue virus 3 Martinique/1243/1999
pKd: −log10 of the molar value.

{"ordered residues": "NQAVVLMGL", "system tested": "HLA-A*02:06", "pKd": 7.05}

====

Biological target: HLA-A*11:01
Assay: IEDB peptide-MHC binding, purified MHC/competitive/fluorescence; filed as Kd, often an IC50 or EC50 that approximates it; bounds were set here for any values at or beyond the usual limits of such assays
Conditions: source organism: Human immunodeficiency virus 1
measure name: Kd (nM)

{"ordered residues": "KSLFNTIAVLY", "unit of measure": "nM", "val": 1920}

====

Target: HLA-A*02:11
Test: IEDB peptide-MHC binding, purified MHC/direct/fluorescence; filed as Kd, often an IC50 or EC50 that approximates it; bounds were set here for any values at or beyond the usual limits of such assays
Details: source organism: Amur virus
pKd: −log10 of the molar value.
measure name: pKd

{"ordered residues": "TLTRGQNTV", "val": "≤ 4.70"}

====

Target: HLA-A*26:02
Test: IEDB peptide-MHC binding, purified MHC/competitive/fluorescence; filed as Kd, often an IC50 or EC50 that approximates it; bounds were set here for any values at or beyond the usual limits of such assays
Settings: source organism: Zaire ebolavirus
pKd: −log10 of the molar value.

{"ordered residues": "SRTPSGKRL", "system tested": "HLA-A*26:02", "pKd": 5.55}

====

Target: HLA-C*12:03
Experiment: IEDB peptide-MHC binding, purified MHC/direct/fluorescence; filed as Kd, often an IC50 or EC50 that approximates it; bounds were set here for any values at or beyond the usual limits of such assays
Details: source organism: Mycobacterium tuberculosis H37Ra
measure name: Kd (nM)

{"ordered residues": "KAAGAAVAL", "unit of measure": "nM", "val": 76}

====

Target: HLA-B*08:01
Experiment: IEDB peptide-MHC binding, purified MHC/competitive/radioactivity; filed as Kd, often an IC50 or EC50 that approximates it; bounds were set here for any values at or beyond the usual limits of such assays
Settings: source organism: Vaccinia virus WR
pKd: −log10 of the molar value.

{"ordered residues": "SAKQLRTRI", "system tested": "HLA-B*08:01", "readout qualifier": "=", "pKd": 6.70}
{"ordered residues": "MMKERSTIL", "system tested": "HLA-B*08:01", "readout qualifier": "=", "pKd": 7.46}
{"ordered residues": "ELYMYFNHV", "system tested": "HLA-B*08:01", "readout qualifier": "=", "pKd": 6.62}
{"ordered residues": "NPQTKQMAF", "system tested": "HLA-B*08:01", "readout qualifier": "=", "pKd": 7.84}
{"ordered residues": "FKINIFMAF", "system tested": "HLA-B*08:01", "readout qualifier": "=", "pKd": 4.97}
{"ordered residues": "KQYKFYNQI", "system tested": "HLA-B*08:01", "readout qualifier": "≤", "pKd": 4.11}
{"ordered residues": "LYRPNIPLK", "system tested": "HLA-B*08:01", "readout qualifier": "≤", "pKd": 4.48}
{"ordered residues": "KLLSHFYPA", "system tested": "HLA-B*08:01", "readout qualifier": "=", "pKd": 7.09}
{"ordered residues": "SPYNFFKRI", "system tested": "HLA-B*08:01", "readout qualifier": "=", "pKd": 6.37}
{"ordered residues": "RNKLSYRNK", "system tested": "HLA-B*08:01", "readout qualifier": "≤", "pKd": 4.21}
{"ordered residues": "ELKLFNVTL", "system tested": "HLA-B*08:01", "readout qualifier": "=", "pKd": 8.33}
{"ordered residues": "FVKRKKLDI", "system tested": "HLA-B*08:01", "readout qualifier": "=", "pKd": 8.53}
{"ordered residues": "SMKTVFQVF", "system tested": "HLA-B*08:01", "readout qualifier": "=", "pKd": 6.75}

====

Molecular target: HLA-A*26:03
Assay: IEDB peptide-MHC binding, purified MHC/direct/fluorescence; filed as Kd, often an IC50 or EC50 that approximates it; bounds were set here for any values at or beyond the usual limits of such assays
Details: source organism: Ravn virus - Ravn, Kenya, 1987

{"ordered residues": "LFLSFCSLF", "Kd": "≥ 20 µM"}
{"ordered residues": "CVFKFIVAK", "Kd": "≥ 20 µM"}

====

Target: HLA-A*02:06
Experiment: IEDB peptide-MHC binding, purified MHC/competitive/radioactivity; filed as Kd, often an IC50 or EC50 that approximates it; bounds were set here for any values at or beyond the usual limits of such assays
Conditions: source organism: Vaccinia virus WR
pKd: −log10 of the molar value.

{"ordered residues": "RIASILSLET", "readout qualifier": "=", "pKd": 6.12}
{"ordered residues": "LAIKNYYRKT", "readout qualifier": "≤", "pKd": 4.16}
{"ordered residues": "VTNLISETLK", "readout qualifier": "=", "pKd": 4.76}
{"ordered residues": "GANGSTAEQL", "readout qualifier": "≤", "pKd": 4.26}
{"ordered residues": "TILDDNLYKV", "readout qualifier": "=", "pKd": 7.31}
{"ordered residues": "YAGTIKESLL", "readout qualifier": "=", "pKd": 5.75}
{"ordered residues": "EVIGLTTHCT", "readout qualifier": "=", "pKd": 4.91}
{"ordered residues": "RPDTRHLRVL", "readout qualifier": "≤", "pKd": 4.16}
{"ordered residues": "ETIEILRNYL", "readout qualifier": "=", "pKd": 9.56}
{"ordered residues": "TQLFKYVPSA", "readout qualifier": "≤", "pKd": 4.16}
{"ordered residues": "SLTTIGTIA", "readout qualifier": "=", "pKd": 6.31}
{"ordered residues": "KTRLFRSPQV", "readout qualifier": "=", "pKd": 6.36}
{"ordered residues": "AARLKRSAT", "readout qualifier": "≤", "pKd": 4.20}
{"ordered residues": "ITRLEVIGL", "readout qualifier": "=", "pKd": 6.11}
{"ordered residues": "GLSSGFYFEI", "readout qualifier": "=", "pKd": 5.76}
{"ordered residues": "CTEETKRNI", "readout qualifier": "≤", "pKd": 4.11}
{"ordered residues": "AVYFKAKWLT", "readout qualifier": "=", "pKd": 5.06}
{"ordered residues": "SADNHPKMI", "readout qualifier": "≤", "pKd": 4.11}
{"ordered residues": "CLLTDTIESA", "readout qualifier": "=", "pKd": 7.04}
{"ordered residues": "VTKRDESSI", "readout qualifier": "≤", "pKd": 4.42}
{"ordered residues": "NTVGMSIVCI", "readout qualifier": "=", "pKd": 5.92}
